For reference, pIC50 measured on Acetylcholinesterase (Electrophorus electricus):
Numbers only, as −log10 of the molar value.

Example results:
CC(C)=CCOc1c2ccoc2cc2oc(=O)ccc12 [ISOIMPERATORIN] : 4.59
O=c1ccc2cc3ccoc3cc2o1 [PSORALEN] : 4.53
O=c1ccc2ccc3occc3c2o1 [ANGELICIN] : 4.60
O=c1ccc2c(ccc3ccoc32)o1 [BAKUCHICIN] : 4.45

Count: 2. Required value per item: pIC50.
1. CC(C)=CCc1c(O)ccc2ccc(=O)oc12 [OSTHENOL]
2. COc1cc2ccc(=O)oc2cc1O [SCOPOLETIN]

[4.60, 4.45]

----------
system.tested: UniProt P27338
test: Inhibition of human recombinant MAO-B expressed in baculovirus infected BTI insect cells using benzylamine as substrate assessed as residual activity at 10 uM after 30 mins by spectrophotometric analysis relative to control
test.conditions: 0.5 h, read-out: Activity
outcome.measure: activity at 10 µM

Example results:
O=c1ccc2ccc3occc3c2o1 [ANGELICIN] : 27.2%
O=c1ccc2cc3ccoc3cc2o1 [PSORALEN] : 78.3%
COc1cc2ccc(=O)oc2cc1O [SCOPOLETIN] : 97.7%
CC(C)=CCOc1c2ccoc2cc2oc(=O)ccc12 [ISOIMPERATORIN] : 78.3%

Count: 2. Required value per item: activity at 10 µM.
1. CC(C)=CCc1c(O)ccc2ccc(=O)oc12 [OSTHENOL]
2. O=c1ccc2c(ccc3ccoc32)o1 [BAKUCHICIN]

1. 84.7%
2. 37.8%

----------
system.tested: Amine oxidase [flavin-containing] A (Homo sapiens, UniProt P21397)
Sequence (P21397 whole entry): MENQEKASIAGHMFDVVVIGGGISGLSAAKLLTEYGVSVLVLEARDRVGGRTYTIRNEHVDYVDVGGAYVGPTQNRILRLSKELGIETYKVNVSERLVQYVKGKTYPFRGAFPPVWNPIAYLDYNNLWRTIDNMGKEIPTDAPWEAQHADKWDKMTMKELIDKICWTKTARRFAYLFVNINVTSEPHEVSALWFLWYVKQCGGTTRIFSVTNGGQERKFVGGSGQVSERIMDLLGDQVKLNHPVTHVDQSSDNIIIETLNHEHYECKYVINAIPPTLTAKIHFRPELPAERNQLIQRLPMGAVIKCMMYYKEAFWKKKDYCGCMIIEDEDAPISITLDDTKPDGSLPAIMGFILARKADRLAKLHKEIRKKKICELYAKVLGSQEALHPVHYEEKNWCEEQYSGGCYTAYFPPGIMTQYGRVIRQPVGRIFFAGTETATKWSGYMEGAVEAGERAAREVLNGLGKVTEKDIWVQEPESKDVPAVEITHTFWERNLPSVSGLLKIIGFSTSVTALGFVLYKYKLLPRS
test: biochemical
outcome.measure: pIC50
Answers are plain numbers, as −log10 of the molar value.

Example results:
COc1ccc(-c2oc3cc(O)cc(O)c3c(=O)c2O)cc1 [KAEMPFERIDE] : 6.72
O=c1ccc2ccc3occc3c2o1 : 6.06
CC(C)=CCc1c(O)ccc2ccc(=O)oc12 : 6.13

// moving on: another record for pIC50
Indicate the recorded pIC50 value for this compound: O=c1ccc2c(ccc3ccoc32)o1
5.75

----------
system.tested: Amine oxidase [flavin-containing] B (Homo sapiens)
Sequence (P27338 whole entry): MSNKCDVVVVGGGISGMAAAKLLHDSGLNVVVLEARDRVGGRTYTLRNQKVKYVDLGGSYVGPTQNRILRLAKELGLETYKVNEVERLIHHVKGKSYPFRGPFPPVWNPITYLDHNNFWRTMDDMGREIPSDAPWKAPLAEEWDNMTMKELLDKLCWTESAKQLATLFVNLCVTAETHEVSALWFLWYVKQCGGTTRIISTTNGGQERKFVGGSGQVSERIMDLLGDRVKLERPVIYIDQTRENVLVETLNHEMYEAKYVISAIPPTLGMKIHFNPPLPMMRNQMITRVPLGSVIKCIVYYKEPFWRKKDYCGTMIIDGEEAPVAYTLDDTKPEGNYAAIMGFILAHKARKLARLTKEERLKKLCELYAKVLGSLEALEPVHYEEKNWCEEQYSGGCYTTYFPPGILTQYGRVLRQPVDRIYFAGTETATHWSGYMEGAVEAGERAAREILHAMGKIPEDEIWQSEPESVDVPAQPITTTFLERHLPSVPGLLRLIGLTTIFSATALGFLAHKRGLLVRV
test: biochemical
pIC50: −log10 of the molar value.
outcome.measure: pIC50

Example results:
O=c1ccc2c(ccc3ccoc32)o1 : 5.26
CC(C)=CCc1c(O)ccc2ccc(=O)oc12 : < 4.22
COc1cc2ccc(=O)oc2cc1O : < 4.22
CC(C)=CCOc1c2ccoc2cc2oc(=O)ccc12 : < 4.22
O=c1ccc2ccc3occc3c2o1 : 5.56

// moving on: another record for pIC50
Indicate the recorded pIC50 value for this compound: O=c1ccc2cc3ccoc3cc2o1
< 4.22
